Molecular target: T1, monkey GPC3-His protein (monkey)
T1 construct: Bought recombinant protein; also called monkey GPC3 protein
Test: SPR, antibody captured on Protein A chip, monkey GPC3-His analyte;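 also: run at 25 °C with 240 s association and up to 600 s dissociation, double-referenced, kinetics fitted to a 1:1 Langmuir binding model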
attribute-measured: koff (s⁻¹)
The answer is to be given in s⁻¹; state only the numeric part.

F1.21.8 (antibody, human IgG1, kappa, V domains shown, Human-murine chimeric antibody) VH: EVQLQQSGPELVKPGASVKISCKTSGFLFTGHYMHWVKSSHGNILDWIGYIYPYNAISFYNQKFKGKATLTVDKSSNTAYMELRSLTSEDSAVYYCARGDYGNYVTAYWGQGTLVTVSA VL: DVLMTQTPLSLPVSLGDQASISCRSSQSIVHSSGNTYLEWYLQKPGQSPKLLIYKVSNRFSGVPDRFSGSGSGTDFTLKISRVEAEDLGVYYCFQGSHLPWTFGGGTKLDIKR; 4.65e-05

Now take the following binder into account.
Q) What value of koff has been recorded for this entry: F1.57.21 (antibody, human IgG1, kappa, V domains shown, Human-murine chimeric antibody) VH: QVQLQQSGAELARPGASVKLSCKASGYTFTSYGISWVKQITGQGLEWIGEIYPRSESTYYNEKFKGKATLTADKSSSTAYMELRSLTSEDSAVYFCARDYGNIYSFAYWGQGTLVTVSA VL: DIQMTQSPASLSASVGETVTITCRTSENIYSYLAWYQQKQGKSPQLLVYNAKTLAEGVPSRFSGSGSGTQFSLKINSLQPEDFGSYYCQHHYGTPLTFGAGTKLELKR
A) 0.00306
